# targetOrTestSystem: Nurr1 (Homo sapiens)
# Construct: Nurr1 (uniprot entry: hNURR1–P43354, residues 360–598); expressed in transfected cells; host or cells: HEK293T
# Sequence (P43354 360-598): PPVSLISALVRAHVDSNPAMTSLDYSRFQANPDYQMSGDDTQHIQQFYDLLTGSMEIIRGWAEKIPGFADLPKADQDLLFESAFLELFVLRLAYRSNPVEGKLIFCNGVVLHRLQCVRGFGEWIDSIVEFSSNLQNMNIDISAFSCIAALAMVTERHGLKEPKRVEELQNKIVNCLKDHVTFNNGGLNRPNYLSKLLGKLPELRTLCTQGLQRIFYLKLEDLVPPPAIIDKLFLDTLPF
# assayProcedure: Gal4-Nurr1 hybrid reporter gene assay in HEK293T cells
# Assay type: cell-based
# conditionSet: 10 µM; primary screen; n ≥ 2; ^# not significant vs VP16 control
valueKind: Nurr1 activity 10μM (mean fold activation) (fold)

>  <compound>
NC(=O)Cc1cccc(C(=O)c2ccccc2)c1N [nepafenac]

>  <targetOrTestSystem>
Nurr1 (Homo sapiens)

>  <resultUnits>
fold

>  <experimentalValue>
1.02

$$$$
>  <compound>
O=C(O)c1ccccc1O [salicylic acid]

>  <targetOrTestSystem>
Nurr1 (Homo sapiens)

>  <resultUnits>
fold

>  <experimentalValue>
1.08

$$$$
>  <compound>
CS(=O)(=O)c1ccc(C2=C(c3ccccc3)C(=O)OC2)cc1 [rofecoxib]

>  <targetOrTestSystem>
Nurr1 (Homo sapiens)

>  <resultUnits>
fold

>  <experimentalValue>
1.02

$$$$
>  <compound>
Cc1ccc(Nc2c(F)cccc2Cl)c(CC(=O)O)c1 [lumiracoxib]

>  <targetOrTestSystem>
Nurr1 (Homo sapiens)

>  <resultUnits>
fold

>  <experimentalValue>
0.90

$$$$
>  <compound>
CC(C(=O)O)c1ccc(C(=O)c2ccccc2)s1 (stereo not drawn) [tiaprofenic acid]

>  <targetOrTestSystem>
Nurr1 (Homo sapiens)

>  <resultUnits>
fold

>  <experimentalValue>
1.52

$$$$
>  <compound>
CC(C(=O)O)c1ccc(-c2ccccc2)c(F)c1 (stereo not drawn) [flurbiprofen]

>  <targetOrTestSystem>
Nurr1 (Homo sapiens)

>  <resultUnits>
fold

>  <experimentalValue>
1.25

$$$$
>  <compound>
COc1ccc2cc([C@H](C)C(=O)O)ccc2c1 [naproxen]

>  <targetOrTestSystem>
Nurr1 (Homo sapiens)

>  <resultUnits>
fold

>  <experimentalValue>
1.14

$$$$
>  <compound>
Cc1onc(-c2ccccc2)c1-c1ccc(S(N)(=O)=O)cc1 [valdecoxib]

>  <targetOrTestSystem>
Nurr1 (Homo sapiens)

>  <resultUnits>
fold

>  <experimentalValue>
0.79

$$$$
>  <compound>
CS(=O)(=O)Nc1ccc([N+](=O)[O-])cc1Oc1ccccc1 [nimesulid]

>  <targetOrTestSystem>
Nurr1 (Homo sapiens)

>  <resultUnits>
fold

>  <experimentalValue>
1.00

$$$$
>  <compound>
Cc1ccc(C(=O)c2ccc(CC(=O)O)n2C)cc1 [tolmetin]

>  <targetOrTestSystem>
Nurr1 (Homo sapiens)

>  <resultUnits>
fold

>  <experimentalValue>
1.08

$$$$
>  <compound>
CC(C(=O)O)c1cccc(Oc2ccccc2)c1 (stereo not drawn) [fenoprofen]

>  <targetOrTestSystem>
Nurr1 (Homo sapiens)

>  <resultUnits>
fold

>  <experimentalValue>
1.00

$$$$
>  <compound>
CC(C(=O)O)c1ccc2c(c1)CC(=O)c1ccccc1S2 (stereo not drawn) [zaltoprofen]

>  <targetOrTestSystem>
Nurr1 (Homo sapiens)

>  <resultUnits>
fold

>  <experimentalValue>
0.97

$$$$
>  <compound>
COc1ccc2cc(CCC(C)=O)ccc2c1 [nabumeton]

>  <targetOrTestSystem>
Nurr1 (Homo sapiens)

>  <resultUnits>
fold

>  <experimentalValue>
1.44

$$$$
>  <compound>
CN1C(C(=O)Nc2ccccn2)=C(O)c2sccc2S1(=O)=O [tenoxicam]

>  <targetOrTestSystem>
Nurr1 (Homo sapiens)

>  <resultUnits>
fold

>  <experimentalValue>
1.04

$$$$
